Tested on: HeLa
TEST_PROTOCOL: Cytotoxicity against human HeLa cells assessed as cell detachment up to 60 uM after 3 hrs
Type: cell-based
ENDPOINT_LABEL: Activity

Cc1ccc(CSc2nc(C(=O)O)ccc2C#N)cc1 | Non-toxic
Cc1ccc(-c2nn(-c3ccccc3)cc2C2CC(c3cccs3)=NN2C(=O)CCCC(=O)O)cc1 (centres undefined) | Non-toxic
O=C(Nc1cccc(C2=NCCN2)c1)Nc1cccc(C2=NCCN2)c1 | Non-toxic
Cc1cc(O)ccc1Sc1ccc(O)cc1C | Toxic

====

Test system: HeLa
TEST_PROTOCOL: Cytotoxicity against human HeLa cells assessed as LDH release up to 60 uM after 3 hrs
Type: cell-based
ENDPOINT_LABEL: Activity

O=C(Nc1cccc(C2=NCCN2)c1)Nc1cccc(C2=NCCN2)c1 | Non-toxic
Cc1ccc(CSc2nc(C(=O)O)ccc2C#N)cc1 | Non-toxic
Cc1ccc(-c2nn(-c3ccccc3)cc2C2CC(c3cccs3)=NN2C(=O)CCCC(=O)O)cc1 (centres undefined) | Non-toxic
Cc1cc(O)ccc1Sc1ccc(O)cc1C | Toxic

====

System: Yersinia pestis
TEST_PROTOCOL: Toxicity in Yersinia pestis JG153 assessed as growth inhibition at 60 uM measured 6 mins intervals for 24 hrs
Type: organism-based
ENDPOINT_LABEL: Activity

O=C(Nc1cccc(C2=NCCN2)c1)Nc1cccc(C2=NCCN2)c1 | Non-toxic
Cc1ccc(-c2nn(-c3ccccc3)cc2C2CC(c3cccs3)=NN2C(=O)CCCC(=O)O)cc1 (stereo not given) | Non-toxic
O=C(N/N=C/c1cc(Br)cc(Br)c1O)c1ccc([N+](=O)[O-])cc1 | Toxic
Cc1cc(O)ccc1Sc1ccc(O)cc1C | Non-toxic

Now for the compound whose Activity we want.
Prompt: What does the record list as Activity for Cc1ccc(CSc2nc(C(=O)O)ccc2C#N)cc1 ?
Completion: Non-toxic

====

Tested on: Yersinia pestis
TEST_PROTOCOL: Inhibition of T3SS-mediated YopD secretion in Yersinia pestis JG401 after 2 hrs by Western blotting
ENDPOINT_LABEL: inhibition

Cc1cc(O)ccc1Sc1ccc(O)cc1C | Dose-dependent effect
Cc1ccc(-c2nn(-c3ccccc3)cc2C2CC(c3cccs3)=NN2C(=O)CCCC(=O)O)cc1 (centres undefined) | Dose-dependent effect
O=C(Nc1cccc(C2=NCCN2)c1)Nc1cccc(C2=NCCN2)c1 | Dose-dependent effect
Cc1ccc(CSc2nc(C(=O)O)ccc2C#N)cc1 | Dose-dependent effect

====

System: HeLa
TEST_PROTOCOL: Cytotoxicity against human HeLa cells assessed as cell rounding up to 60 uM after 3 hrs
Type: cell-based
ENDPOINT_LABEL: Activity

Cc1ccc(-c2nn(-c3ccccc3)cc2C2CC(c3cccs3)=NN2C(=O)CCCC(=O)O)cc1 (centres undefined) | Non-toxic
O=C(Nc1cccc(C2=NCCN2)c1)Nc1cccc(C2=NCCN2)c1 [IMIDOCARB] | Non-toxic
Cc1cc(O)ccc1Sc1ccc(O)cc1C | Toxic
Cc1ccc(CSc2nc(C(=O)O)ccc2C#N)cc1 | Non-toxic

All values here come from ChEMBL document CHEMBL1629604.
